Test system: MCF-7
Assay: MTT cytotoxicity test, MCF-7
Assay type: cell-based, human
Conditions: breast cancer cell line, 72 hours
hey, just use class 1 if measured IC50 MCF-7 is less than 5 mg/L, otherwise class 0

Molecule: C[C@@]12CC([C@@]3(O)CC[C@H]4[C@@H]5C[C@H](O)[C@]6(O)[C@@H](O)C=CC(=O)[C@]6(C)[C@H]5CC[C@@]43C)[C@@H](C1)OC(=O)[C@]2(C)O (stereo partly drawn) [Compound 20, Anomanolide B]
Category Label: class 1

[in] Problem: For the molecule CC1=C(C)[C@H](O)[C@H]([C@@H](C)[C@@]23O[C@@H]2C[C@H]2[C@@H]4C[C@H]5O[C@]56[C@@H](O)C=CC(=O)[C@]6(C)[C@H]4CC[C@@]23C)OC1=O [Compound 10, 23-Hydroxytubocapsanolide A] , is IC50 MCF-7 under 5 mg/L?
[out] class 1

[in] Same for CCCCOC1CC(=O)[C@]2(C)[C@H]3CCC4=C(C[C@@H](O)[C@@]4(C)[C@H](C)[C@H]4CC(C)=C(C)C(=O)O4)[C@@H]3C[C@H]3O[C@]32[C@H]1O (stereo partly drawn) [Compound 5, Tubocapsenolide E]
[out] class 0

[in] Same for COC1CC(=O)[C@]2(C)[C@H]3CC[C@@]4(C)[C@@H](CC[C@]4(O)[C@@](C)(O)[C@H]4CC(C)=C(C)C(=O)O4)[C@@H]3C[C@H]3O[C@]32[C@H]1O (stereo partly drawn) [Compound 17, 20-Hydroxytubocapsanolide G]
[out] class 0

[in] Same for C[C@@]12CC([C@@]3(O)[C@H](O)C[C@H]4[C@@H]5C[C@H]6O[C@]67[C@@H](O)C=CC(=O)[C@]7(C)[C@H]5CC[C@@]43C)[C@@H](C1)OC(=O)[C@]2(C)O (stereo partly drawn) [Compound 21, Anomanolide C]
[out] class 0

---

Tested on: MCF-7
Test: MTT cytotoxicity test, MCF-7
Assay type: cell-based, human
Conditions: breast cancer cell line, 72 hours
// reported IC50 MCF-7 for each item listed
API: value field is a number in µg/mL; no unit string.

Molecule: C[C@@]12CC([C@@]3(O)CC[C@H]4[C@@H]5C[C@H]6O[C@]67[C@@H](O)C=CC(=O)[C@]7(C)[C@H]5CC[C@@]43C)[C@@H](C1)OC(=O)[C@]2(C)O (some centres unmarked) [Compound 19, Anomanolide A]
System Tested: MCF-7
Unit Info: µg/mL
Number: 2.31

[in] Short answer please: IC50 MCF-7, MCF-7, entry CC1=C(CO)C(=O)O[C@@H]([C@@H](C)[C@H]2CC[C@H]3[C@@H]4C[C@H]5O[C@]56[C@@H](O)C=CC(=O)[C@]6(C)[C@H]4CC[C@]23C)C1 [withaferin A, reference compound]
[out] 0.05

---

// reported IC50 MCF-7 for each item listed
System: MCF-7
Assay: MTT cytotoxicity test, MCF-7
Format: cell-based, human
Conditions: breast cancer cell line, 72 hours
API: value field is a number in µg/mL; no unit string.

Molecule: CC1=C(C)C(=O)O[C@@H]([C@@H](C)[C@@]2(C)C3=C(C[C@H]2O)[C@@H]2C[C@H](O)[C@]4(O)[C@@H](O)C=CC(=O)[C@]4(C)[C@H]2CC3)C1 [Compound 6, Tubocapsenolide F]
IC50 MCF-7, µg/mL: 14.71

// below: IC50 MCF-7 requested for another molecule
[in] Short answer please: IC50 MCF-7, MCF-7, entry COC1CC(=O)[C@]2(C)[C@H]3CC[C@]4(C)C([C@@](C)(O)[C@H]5CC(C)=C(C)C(=O)O5)=CC[C@H]4[C@@H]3C[C@H]3O[C@]32[C@H]1O (stereo partly shown) [Compound 18, Tubocapsanolide H]
[out] 9.27
